Recorded % of Positive control (10 μM Rifampicin) values for a group of molecules are listed next.
System: CYP3A4
Conditions: human, 24 h
Write the value in % as a bare number.

These solved cases illustrate the format of a correct answer.
1. COC(=O)C1=C(CN2CC3CC(C2)O3)NC(c2nccs2)=N[C@H]1c1ccc(F)cc1Cl [Example 38]
35
2. COC(=O)C1=C(CN2[C@@H]3C[C@H](CC(=O)O)C[C@H]2C(F)(F)C3)NC(c2nccs2)=N[C@H]1c1ccccc1Cl [Example 90]
37
3. COC(=O)C1=C(CN2C3COCC2C(F)(F)[C@H](CC(=O)O)C3)NC(c2nccs2)=N[C@H]1c1ccc(F)cc1Cl (some centres unmarked) [Example 126]
17

Exam item: I'd like to know its % of Positive control (10 μM Rifampicin). The molecule in question is COC(=O)C1=C(CN2C3COCC2CC(CC(=O)O)C3)NC(c2nccs2)=N[C@H]1c1ccc(F)cc1Cl (some centres unmarked) [Example 24]
Marked response: 29

Exam item: I'd like to know its % of Positive control (10 μM Rifampicin). The molecule in question is COC(=O)C1=C(CN2C3COCC2C(NC(C)=O)C3)NC(c2nccs2)=N[C@H]1c1ccc(F)cc1Cl (some centres unmarked) [Example 48]
Marked response: 17

Exam item: I'd like to know its % of Positive control (10 μM Rifampicin). The molecule in question is CCOC(=O)C1=C(CN2[C@@H]3COC[C@H]2C[C@H](CC(=O)O)C3)NC(c2nccs2)=N[C@H]1c1cccc(F)c1Br [Example 68]
Marked response: 7.7

Exam item: I'd like to know its % of Positive control (10 μM Rifampicin). The molecule in question is COC(=O)C1=C(CN2C3COCC2CC(CC(=O)O)C3)NC(c2nccs2)=N[C@H]1c1ccc(F)c(F)c1Cl (some centres unmarked) [Example 135]
Marked response: 27

Exam item: I'd like to know its % of Positive control (10 μM Rifampicin). The molecule in question is COC(=O)C1=C(CN2C3COCC2CN(C)C3)NC(c2nccs2)=N[C@H]1c1ccc(F)cc1Cl [Example 12]
Marked response: 21
